Values compiled from ChEMBL document CHEMBL3286109.

- assay.protocol: Therapeutic index, ratio of TC50 for human PBMC to EC50 for HIV-1 02CM0015BBY subtype CRF02_AG infected in human PBMC
- run.parameters: read-out: TI
readout.kind: selectivity ratio
Numbers only.

Enquiry: Would you kindly share the measured selectivity ratio for COC(=O)c1cccc(Cn2ccc3ccc(-c4ccc5ccn(Cc6cccc(C(=O)O)c6)c5c4)cc32)c1 ?
Return: 47.8

* * *

Hi there, I'd appreciate the recorded CC50 for every entry that follows.
- assay.protocol: Cytotoxicity against human MAGI-CCR5 cells assessed as inhibition of cell viability by MTS assay
- Type: cell-based
- run.parameters: read-out: TC50 (the source's name)

Examples with answers:
{"mol": "Cn1ccc2ccc(-c3ccc4ccn(Cc5cccc(C(=O)O)c5)c4c3)cc21", "CC50": "> 50 µM"}
{"mol": "O=C(O)c1cccc(Cc2c[nH]c3ccc(-c4ccc5cc[nH]c5c4)cc23)c1", "CC50": "80 µM"}
{"mol": "COc1cccc(Cn2ccc3ccc(-c4ccc5c(c4)ncn5Cc4cccc(C(=O)O)c4)cc32)c1", "CC50": "> 100 µM"}
{"mol": "COc1cccc(Cn2cnc3cc(-c4ccc5ccn(Cc6cccc(C(=O)O)c6)c5c4)ccc32)c1", "CC50": "> 100 µM"}

Now turn to the next molecule.
Enquiry: Would you kindly share the measured CC50 for NC(=O)c1cccc(Cn2ccc3ccc(-c4ccc5ccn(Cc6cccc(C(=O)O)c6)c5c4)cc32)c1 ?
Return: > 100 µM
